tested on: T. brucei wild-type; assay: Drug sensitivity, wild-type parental line; type: cell-based, T. b. brucei; conditions: Trypanosoma brucei; weighted mean of ≥3 independent experiments
Quantity kind: EC50 (nM)
Unit nM implied. Number only.

Kindly note the recorded EC50 for O=C1Nc2ccc3ncsc3c2/C1=C/Nc1ccc(S(=O)(=O)Nc2ccccn2)cc1 , which is 120

response.value for CC(C)(O)CC(=O)c1sc(Nc2ccc(F)c(F)c2)nc1N (field: EC50) = 310

Sample Nc1nc(Nc2ccccc2)sc1C(=O)c1c(F)cccc1F [Compound 69, reference compound] ; EC50 observed: 150

* * *

Collected reduction (loss, drop off) in potency against T. brucei relative to parent analogue values appear next to each entry.
system: BSF T. b. brucei “single marker” S427; test: Drug sensitivity assay with bloodstream-form T. brucei; type: cell-based; settings: SAR comparison

Guide cases for reduction (loss, drop off) in potency against T. brucei relative to parent analogue, answers given:
> print(dat)
                                   compound                                    tgt  recorded.result
1       O=C(c1cnc(NC2CCCCC2)s1)c1c(F)cccc1F  BSF T. b. brucei “single marker” S427        > 20 fold
2           O=C(c1cnc(NC2CCCCC2)s1)C1CCCCC1  BSF T. b. brucei “single marker” S427        > 20 fold
3  CC(OCC(=O)c1sc(Nc2ccc(C(F)(F)F)cc2)nc1N)C(F)(F)F (stereo not shown)  BSF T. b. brucei “single marker” S427          10 fold

Field: next compound
Considering Nc1nc(Nc2ccc(F)c(F)c2)sc1C(=O)CCN1CCOCC1 , its reduction (loss, drop off) in potency against T. brucei relative to parent analogue with BSF T. b. brucei “single marker” S427 was recorded as > 110 fold
